PROTOCOL_NOTES: stability of the synthetic peptides in human plasma
Type: in vitro ADME
CONDITION_DESCRIPTION: male, 37° C., peptide 100 μM, read-out: Half-Time of the synthetic peptides in plasma
Description: The blood sample thus prepared was examined for the stability in whole blood. […] Then, the supernatant was collected to obtain a plasma fraction. This plasma fraction was examined for the stability in plasma. The whole blood or plasma (225 μl) was placed in a test tube and heated to 37° C. […] The samples were analyzed by reversed phase HPLC. The peak area of each synthetic peptide was calculated and the stability in the whole blood or plasma was evaluated from the change of the peak area.
No end group written: not given here.
PARAMETER: half-life at 100 μM (min)

(1) WSRGDW-OH [Example 1, Trp--Ser--Arg--Gly--Asp--Trp--OH]
(2) PSRGDW-OH [Example 16, Pro--Ser--Arg--Gly--Asp--Trp--OH]
Asked: Lab notebook, comparison: 1 versus 2 , higher half-life at 100 μM goes to which? Your answer should be the label of the entry you select.
Given back: 2
